# test-system: UniProtKB P08482
# Sequence (P08482 whole entry): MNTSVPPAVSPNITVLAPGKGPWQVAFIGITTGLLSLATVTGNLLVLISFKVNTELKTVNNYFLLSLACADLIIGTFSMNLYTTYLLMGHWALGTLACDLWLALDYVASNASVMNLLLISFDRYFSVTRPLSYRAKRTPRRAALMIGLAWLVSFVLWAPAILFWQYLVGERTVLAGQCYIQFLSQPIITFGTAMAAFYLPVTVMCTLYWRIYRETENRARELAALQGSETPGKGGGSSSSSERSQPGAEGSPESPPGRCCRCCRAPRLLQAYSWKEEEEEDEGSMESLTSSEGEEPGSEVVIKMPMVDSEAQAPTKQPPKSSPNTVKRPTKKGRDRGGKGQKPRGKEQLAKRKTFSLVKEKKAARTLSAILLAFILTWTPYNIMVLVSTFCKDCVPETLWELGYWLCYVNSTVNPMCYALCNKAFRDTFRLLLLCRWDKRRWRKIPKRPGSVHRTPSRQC
# method-description: Binding affinity for muscarinic acetylcholine receptor M1 using [3H]oxotremorine-M (Oxo-M) radioligand in rat hippocampus membranes
# Type: cell membranes, Membrane
property-measured: log10 of IC50 (log10 of the value in nM)

* CCOc1nsnc1OC1CN2CCC1CC2 (configuration not stated) | 1.30
* CCCOc1nsnc1OC1CN2CCC1CC2 (configuration not stated) | 1.10
* CSCCc1nsnc1OC1CN2CCC1CC2 (configuration not stated) | 1.77
* CCCSc1nsnc1O[C@@H]1CC2CCN(C2)C1 (stereo in doubt; 33) | 1.18
* CCCCOc1nonc1OC1CN2CCC1CC2 (configuration not stated) | 2.40
* CCCCOc1nccnc1OC1CN2CCC1CC2 (configuration not stated) | 1.58
* CCCCCSc1nsnc1OC1CN2CCC1CC2 (stereo in doubt; 18g) | 0.15
